Test system: 292921-168-R-J2-PDC complex spheroid viability
Assay: Anticancer human tumor 292921-168-R-J2-PDC patient-derived pancreatic carcinoma cell line growth inhibition; active = viability on the fitted dose curve at most 10% of control; inactive = the rest
Conditions: second compound 1 µM; first compound 0.01 µM
// allowed return values: t (active), f (inactive)

Challenge: Assay outcome for O=C(C=Cn1cnc(-c2cc(C(F)(F)F)cc(C(F)(F)F)c2)n1)NNc1cnccn1 + NC1CC1c1ccc(-c2cccc(O)c2)cc1 : what was it?
Response given: f

Challenge: Assay outcome for CC[C@@]1(O)C(=O)OCc2c1cc1n(c2=O)Cc2cc3c(CN(C)C)c(O)ccc3nc2-1 + NC1CCC(NC2CC2c2ccccc2)CC1 : what was it?
Response given: f

Challenge: Assay outcome for COc1cc(Nc2ncc3c(n2)-c2ccc(Cl)cc2C(c2c(F)cccc2OC)=NC3)ccc1C(=O)O + NC1CC1c1ccc(-c2cccc(O)c2)cc1 : what was it?
Response given: f

Challenge: Assay outcome for O=C(C=Cn1cnc(-c2cc(C(F)(F)F)cc(C(F)(F)F)c2)n1)NNc1cnccn1 + NC1CCC(NC2CC2c2ccccc2)CC1 : what was it?
Response given: f

Challenge: Assay outcome for CC1COCCN1c1cc(-c2ccnn2C)c2ccnc(-c3ccn[nH]3)c2n1 (stereo not drawn) + NC1CCC(NC2CC2c2ccccc2)CC1 : what was it?
Response given: f

Challenge: Assay outcome for CC(C)CC(NC(=O)CNC(=O)c1cc(Cl)ccc1Cl)B1OC(=O)CC(CC(=O)O)(C(=O)O)O1 (stereo not drawn) + NC1CC1c1ccc(-c2cccc(O)c2)cc1 : what was it?
Response given: f

Challenge: Assay outcome for CC[C@@]1(O)C(=O)OCc2c1cc1n(c2=O)Cc2cc3c(CN(C)C)c(O)ccc3nc2-1 + NC1CC1c1ccc(-c2cccc(O)c2)cc1 : what was it?
Response given: f

Challenge: Assay outcome for CC1COCCN1c1cc(-c2ccnn2C)c2ccnc(-c3ccn[nH]3)c2n1 (stereo not drawn) + NC1CC1c1ccc(-c2cccc(O)c2)cc1 : what was it?
Response given: f

Challenge: Assay outcome for Cn1ncnc1C1c2n[nH]c(=O)c3cc(F)cc(c23)NC1c1ccc(F)cc1 (stereo not drawn) + NC1CCC(NC2CC2c2ccccc2)CC1 : what was it?
Response given: f

Challenge: Assay outcome for CC(C)CC(NC(=O)C(Cc1ccccc1)NC(=O)c1cnccn1)B(O)O (stereo not drawn) + NC1CCC(NC2CC2c2ccccc2)CC1 : what was it?
Response given: t

Challenge: Assay outcome for Cn1ncnc1C1c2n[nH]c(=O)c3cc(F)cc(c23)NC1c1ccc(F)cc1 (stereo not drawn) + NC1CC1c1ccc(-c2cccc(O)c2)cc1 : what was it?
Response given: f

Challenge: Assay outcome for COc1cc(Nc2ncc3c(n2)-c2ccc(Cl)cc2C(c2c(F)cccc2OC)=NC3)ccc1C(=O)O + NC1CCC(NC2CC2c2ccccc2)CC1 : what was it?
Response given: f

Challenge: Assay outcome for Nc1ncn(C2CC(O)C(CO)O2)c(=O)n1 (stereo not drawn) + NC1CC1c1ccc(-c2cccc(O)c2)cc1 : what was it?
Response given: f

###

Test system: 292921-168-R-J2-PDC complex spheroid viability
Experiment: Anticancer human tumor 292921-168-R-J2-PDC cell line growth inhibition; active means viability on the fitted dose curve at most 10% of control; inactive means the rest;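 note: seven day compound exposure before luminescent viability read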
Conditions: second compound 0.1 µM; first compound 0.316 µM
// allowed return values: active, inactive

Challenge: Assay outcome for CC1COCCN1c1cc(-c2ccnn2C)c2ccnc(-c3ccn[nH]3)c2n1 (stereo not drawn) + NC1CC1c1ccc(-c2cccc(O)c2)cc1 : what was it?
Response given: inactive

Challenge: Assay outcome for O=C(C=Cn1cnc(-c2cc(C(F)(F)F)cc(C(F)(F)F)c2)n1)NNc1cnccn1 + NC1CCC(NC2CC2c2ccccc2)CC1 : what was it?
Response given: active

Challenge: Assay outcome for Nc1ncn(C2CC(O)C(CO)O2)c(=O)n1 (stereo not drawn) + NC1CC1c1ccc(-c2cccc(O)c2)cc1 : what was it?
Response given: inactive
